- target or test system: alkaline phosphatase (ALP)
- run description: fluorescence enzyme inhibition assay with compd. […] as substrate
pIC50: −log10 of the molar value.
readout type: pIC50

compound	target or test system	recorded value
[O]=[V]([OH])([OH])[OH] [sodium orthovanadate]	alkaline phosphatase (ALP)	4.99
